Biological target: Arachidonate 5-lipoxygenase-activating protein (Homo sapiens, UniProt P20292)
Assay: Displacement of [125I]L-691,831 from 5-lipoxygenase-activating protein in human polymorphonuclear cells
pIC50: −log10 of the molar value.
QUANTITY: pIC50

COMPOUND	pIC50
COC(=O)c1ccc(OCc2ccc3ccccc3n2)cc1C1(c2ccccc2)CC(C)(C)C1	8.28
COc1cccc([C@]2(c3cc(OCc4ccc5ccccc5n4)ccc3-c3n[nH]c(=O)o3)C[C@H]3CC[C@H]2C3)c1	8.96
c1ccc([C@@]2(c3cc(OCc4ccc5ccccc5n4)ccc3-c3nnco3)C[C@H]3CC[C@H]2C3)cc1 (racemic)	8.54
COC(=O)c1ccc(OCc2ccc3ccccc3n2)cc1[C@]1(c2cccc(OC)c2)C[C@H]2CC[C@H]1C2 (racemic)	8.60

[P] COC(=O)c1ccc(OCc2ccc3ccccc3n2)cc1[C@]1(c2cc(F)cc(F)c2)C[C@H]2CC[C@H]1C2 (racemic)
[Q] CC(C)n1nnc(-c2ccc(OCc3ccc4ccccc4n3)cc2[C@]2(c3ccccc3)C[C@H]3CC[C@H]2C3)n1 (racemic)
[R] O=C(NC1CCCC1)c1ccc(OCc2ccc3ccccc3n2)cc1[C@]1(c2ccccc2)C[C@H]2CC[C@H]1C2 (racemic)
q: Kindly order the items shown according to pIC50, from the highest value down. The reply should contain the labels ordered as requested.
a: Q, P, R
(Q: 8.77, P: 8.47, R: 7.32)

====

Experiment: Oral bioavailability in Sprague-Dawley rat at 2 mg/kg
Assay type: ADME, organism-based
Settings: in vivo
QUANTITY: bioavailability (%)

Some solved entries appear below for comparison.
COMPOUND	bioavailability [%]
O=c1[nH]nc(-c2ccc(OCc3ccc4ccccc4n3)cc2[C@@]2(c3ccccc3)C[C@H]3CC[C@H]2C3)o1	12
CC1CC(c2ccccc2)(c2cc(OCc3ccc4ccccc4n3)ccc2-c2n[nH]c(=O)o2)C1 (mixture of isomers)	17
CC(C)(C)[C@@H](c1ccccc1)c1cc(OCc2ccc3ccccc3n2)ccc1-c1n[nH]c(=O)o1	27

[1] CC1(C)CC(c2ccccc2)(c2cc(OCc3ccc4ccccc4n3)ccc2-c2n[nH]c(=O)o2)C1
[2] COc1cccc([C@]2(c3cc(OCc4ccc5ccccc5n4)ccc3-c3n[nH]c(=O)o3)C[C@H]3CC[C@H]2C3)c1
q: Input pair: 1 , 2 . Output: entry with lower bioavailability. Your answer should be the label attached to the chosen record.
a: 1

====

Biological target: Arachidonate 5-lipoxygenase-activating protein (Homo sapiens)
Sequence (P20292 whole entry): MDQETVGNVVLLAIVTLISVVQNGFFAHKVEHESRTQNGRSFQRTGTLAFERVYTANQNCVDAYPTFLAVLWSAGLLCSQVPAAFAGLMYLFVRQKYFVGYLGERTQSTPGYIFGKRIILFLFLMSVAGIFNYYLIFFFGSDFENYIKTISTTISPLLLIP
Assay: Inhibition of 5-lipoxygenase-activating protein in human polymorphonuclear cells assessed as inhibition of calcium ionophore-induced LTB4 production in presence of human whole blood
Type: tissue-based
QUANTITY: IC50 (nM)

MOLECULE	IC50, nM
O=c1[nH]nc(-c2ccc(OCc3ccc4ccccc4n3)cc2[C@]2(c3ccccc3)C[C@H]3CC[C@H]2C3)o1 (racemic)	796
c1ccc([C@@]2(c3cc(OCc4ccc5ccccc5n4)ccc3-c3nnn[nH]3)C[C@H]3CC[C@H]2C3)cc1 (racemic)	5720
COC(=O)c1ccc(OCc2ccc3ccccc3n2)cc1[C@]1(c2cc(F)cc(F)c2)C[C@H]2CC[C@H]1C2 (racemic)	1320

[A] COC(=O)c1ccc(OCc2ccc3ccccc3n2)cc1[C@]1(c2cc(C)cc(C)c2)C[C@H]2CC[C@H]1C2 (racemic)
[B] COc1cccc([C@]2(c3cc(OCc4ccc5ccccc5n4)ccc3-c3n[nH]c(=O)o3)C[C@H]3CC[C@H]2C3)c1
q: Input pair: A , B . Output: entry with lower IC50. Your answer should be the label attached to the chosen record.
a: B

====

Target: Arachidonate 5-lipoxygenase-activating protein (Homo sapiens, UniProt P20292)
Experiment: Displacement of [125I]L-691,831 from 5-lipoxygenase-activating protein in human polymorphonuclear cells
QUANTITY: IC50 (nM)

Some solved entries appear below for comparison.
COMPOUND	VALUE_UNITS	IC50
CC1CC(c2ccccc2)(c2cc(OCc3ccc4ccccc4n3)ccc2-c2n[nH]c(=O)o2)C1 (mixture of isomers)	nM	2.6
COC(=O)c1ccc(OCc2ccc3ccccc3n2)cc1C1(c2ccccc2)CC(C)C1 (stereo unspecified)	nM	3.2
CCC(CC)(c1ccccc1)c1cc(OCc2ccc3ccccc3n2)ccc1C(=O)OC	nM	96
CC1(C)CC(c2ccccc2)(c2cc(OCc3ccc4ccccc4n3)ccc2-c2n[nH]c(=O)o2)C1	nM	3.6
COC(=O)c1ccc(OCc2ccc3ccccc3n2)cc1C1(c2ccccc2)CCC1	nM	20

[P] COC(=O)c1ccc(OCc2ccc3ccccc3n2)cc1C(CC(C)(C)C)c1ccccc1 (racemic)
[Q] S=c1[nH]nc(-c2ccc(OCc3ccc4ccccc4n3)cc2[C@]2(c3ccccc3)C[C@H]3CC[C@H]2C3)o1 (racemic)
[R] c1ccc([C@@]2(c3cc(OCc4ccc5ccccc5n4)ccc3-c3ncon3)C[C@H]3CC[C@H]2C3)cc1 (racemic)
[S] COC(=O)c1ccc(OCc2ccc3ccccc3n2)cc1C1(c2ccccc2)CCCCC1
q: Sort low-to-high on IC50, please. The reply should contain the labels ordered as requested.
a: Q, P, R, S
(Q: 1.1 nM, P: 3 nM, R: 5.4 nM, S: 15 nM)

[I] O=C(Nc1cccnc1)c1ccc(OCc2ccc3ccccc3n2)cc1[C@]1(c2ccccc2)C[C@H]2CC[C@H]1C2 (racemic)
[II] COC(=O)c1ccc(OCc2ccc3ccccc3n2)cc1[C@]1(c2ccccc2)C[C@H]2CC[C@H]1C2 (racemic)
[III] COC(=O)c1ccc(OCc2ccc3ccccc3n2)cc1C(c1ccccc1)C1CCCCC1 (racemic)
q: Kindly order the items shown according to IC50, from the highest value down. The reply should contain the labels ordered as requested.
a: III, I, II
(III: 16 nM, I: 5.8 nM, II: 2.1 nM)

[P] Cc1nnc(-c2ccc(OCc3ccc4ccccc4n3)cc2[C@]2(c3ccccc3)C[C@H]3CC[C@H]2C3)o1 (racemic)
[Q] O=c1[nH]nc(-c2ccc(OCc3ccc4ccccc4n3)cc2[C@]2(c3ccccc3)C[C@H]3CC[C@H]2C3)o1 (racemic)
q: Name the one with the greater IC50 value, either P or Q as given. Your answer should be the label attached to the chosen record.
a: P

[1] COC(=O)c1ccc(OCc2ccc3ccccc3n2)cc1[C@]1(c2cccc(C)c2)C[C@H]2CC[C@H]1C2 (racemic)
[2] COC(=O)c1ccc(OCc2ccc3ccccc3n2)cc1[C@]1(c2ccc(F)cc2)C[C@H]2CC[C@H]1C2 (racemic)
q: Name the one with the greater IC50 value, either 1 or 2 as given. Your answer should be the label attached to the chosen record.
a: 2

====

Experiment: Volume of distribution in Sprague-Dawley rat at 1 mg/kg, iv and 2 mg/kg, po
Format: ADME, organism-based
Settings: in vivo
QUANTITY: Vd (L/kg)

COMPOUND	RECORDED_RESULT
CC(C)(C)[C@@H](c1ccccc1)c1cc(OCc2ccc3ccccc3n2)ccc1-c1n[nH]c(=O)o1	5.3

[P] CC1(C)CC(c2ccccc2)(c2cc(OCc3ccc4ccccc4n3)ccc2-c2n[nH]c(=O)o2)C1
[Q] COc1cccc([C@]2(c3cc(OCc4ccc5ccccc5n4)ccc3-c3n[nH]c(=O)o3)C[C@H]3CC[C@H]2C3)c1
[R] CC1CC(c2ccccc2)(c2cc(OCc3ccc4ccccc4n3)ccc2-c2n[nH]c(=O)o2)C1 (mixture of isomers)
[S] O=c1[nH]nc(-c2ccc(OCc3ccc4ccccc4n3)cc2[C@@]2(c3ccccc3)C[C@H]3CC[C@H]2C3)o1
q: Sort low-to-high on Vd, please. The reply should contain the labels ordered as requested.
a: Q, S, R, P
(Q: 0.7 L/kg, S: 1 L/kg, R: 3.1 L/kg, P: 7.5 L/kg)

====

Experiment: Cmax in Sprague-Dawley rat at 1 mg/kg, iv and 2 mg/kg, po
Type: ADME, organism-based
Settings: in vivo
QUANTITY: Cmax (nM)

Some solved entries appear below for comparison.
COMPOUND	RECORDED_RESULT
CC(C)(C)[C@@H](c1ccccc1)c1cc(OCc2ccc3ccccc3n2)ccc1-c1n[nH]c(=O)o1	250
O=c1[nH]nc(-c2ccc(OCc3ccc4ccccc4n3)cc2[C@@]2(c3ccccc3)C[C@H]3CC[C@H]2C3)o1	400

[I] COc1cccc([C@]2(c3cc(OCc4ccc5ccccc5n4)ccc3-c3n[nH]c(=O)o3)C[C@H]3CC[C@H]2C3)c1
[II] CC1CC(c2ccccc2)(c2cc(OCc3ccc4ccccc4n3)ccc2-c2n[nH]c(=O)o2)C1 (mixture of isomers)
q: Input pair: I , II . Output: entry with lower Cmax. Your answer should be the label attached to the chosen record.
a: II
(II: 120 nM, I: 670 nM)
